This collection of values is drawn from the supplement of paper PMC10126150.

Test system: ATP;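 note: ATP exposure 15 min at 22 °C before imaging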
Assay: switch fluorescence ratio, 500 uM ATP over buffer (Cy3 cluster intensity, sum of 5 cycles each) (fold (ratio)); higher = stronger signal-on switching upon ATP binding; sequences stand for … in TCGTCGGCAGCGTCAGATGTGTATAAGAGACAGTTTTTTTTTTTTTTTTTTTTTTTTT…TC
Settings: aptamer strand: ATP DNA aptamer (quencher-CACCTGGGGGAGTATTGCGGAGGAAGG + anchor), 100 nM annealed; ATP concentration: 500 uM
// switch fluorescence ratio lookup, one value per entry
# print the numeric value only

In: What does the record list as switch fluorescence ratio for TCGGGAGTGG ?
Out: 0.991

In: What does the record list as switch fluorescence ratio for ATCCGGGTGG ?
Out: 1

In: What does the record list as switch fluorescence ratio for GCCTTCGACT ?
Out: 1.05

New cases:
In: What does the record list as switch fluorescence ratio for ACGAAGGTCG ?
Out: 1.03

In: What does the record list as switch fluorescence ratio for TAAAAACGGA ?
Out: 0.989

In: What does the record list as switch fluorescence ratio for ATCCGGACTT ?
Out: 1.02

In: What does the record list as switch fluorescence ratio for AGGTAAGTGC ?
Out: 1.02

In: What does the record list as switch fluorescence ratio for GGCCGGTTGC ?
Out: 1.03

In: What does the record list as switch fluorescence ratio for GGTACTTTGT ?
Out: 1.03

---

// switch fluorescence ratio lookup, one value per entry
Tested on: ATP;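 note: ATP exposure 15 min at 22 °C before imaging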
Assay: switch fluorescence ratio, 500 uM ATP over buffer (Cy3 cluster intensity, sum of 5 cycles each) (fold (ratio)); higher = stronger signal-on switching upon ATP binding; sequences stand for … in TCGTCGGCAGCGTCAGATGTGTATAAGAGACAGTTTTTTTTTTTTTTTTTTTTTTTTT…TC
Settings: aptamer strand: ATP DNA aptamer (quencher-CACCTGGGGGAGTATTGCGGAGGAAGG + anchor), 100 nM annealed; ATP concentration: 500 uM
# print the numeric value only

Reference set (5 entries):
In: What does the record list as switch fluorescence ratio for ATGGTGAGGA ?
Out: 0.995

In: What does the record list as switch fluorescence ratio for CGGTAGCTTG ?
Out: 1

In: What does the record list as switch fluorescence ratio for ATTAGGAAAG ?
Out: 0.998

In: What does the record list as switch fluorescence ratio for GGAGTTTAAG ?
Out: 0.996

In: What does the record list as switch fluorescence ratio for ATCCCGAAGC ?
Out: 1.93

New cases:
In: What does the record list as switch fluorescence ratio for GGGCAGGCTG ?
Out: 1

In: What does the record list as switch fluorescence ratio for CGGGAACATT ?
Out: 1.01

In: What does the record list as switch fluorescence ratio for GGGATGCCCT ?
Out: 1.01

In: What does the record list as switch fluorescence ratio for TTGGTGATTG ?
Out: 0.976

In: What does the record list as switch fluorescence ratio for CCAGTGGGGC ?
Out: 1.01

---

Test system: ATP;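 note: ATP exposure 15 min at 22 °C before imaging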
Experiment: switch fluorescence ratio, 500 uM ATP over buffer (Cy3 cluster intensity, sum of 5 cycles each) (fold (ratio)); higher = stronger signal-on switching upon ATP binding; sequences stand for … in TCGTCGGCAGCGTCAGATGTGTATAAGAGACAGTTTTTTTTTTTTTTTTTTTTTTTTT…TC
Conditions: aptamer strand: ATP DNA aptamer (quencher-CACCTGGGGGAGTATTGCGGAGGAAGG + anchor), 100 nM annealed; ATP concentration: 500 uM
measurement-kind: switch fluorescence ratio
# print the numeric value only

Reference set (5 entries):
In: // lookup switch fluorescence ratio | system=ATP | key= GAGAATTTGT;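 note: ATP exposure 15 min at 22 °C before imaging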
Out: 0.978

In: // lookup switch fluorescence ratio | system=ATP | key= GGATATGGTT;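 note: ATP exposure 15 min at 22 °C before imaging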
Out: 0.987

In: // lookup switch fluorescence ratio | system=ATP | key= AAAAAACTAT;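 note: ATP exposure 15 min at 22 °C before imaging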
Out: 1.02

In: // lookup switch fluorescence ratio | system=ATP | key= TGGGTGGTGC;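 note: ATP exposure 15 min at 22 °C before imaging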
Out: 0.965

In: // lookup switch fluorescence ratio | system=ATP | key= CCCGGATTTG;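 note: ATP exposure 15 min at 22 °C before imaging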
Out: 1.01

New cases:
In: // lookup switch fluorescence ratio | system=ATP | key= ACTCATGACG;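 note: ATP exposure 15 min at 22 °C before imaging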
Out: 1.05

---

Test system: ATP;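 note: ATP exposure 15 min at 22 °C before imaging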
Experiment: switch fluorescence ratio, 500 uM ATP over buffer (Cy3 cluster intensity, sum of 5 cycles each) (fold (ratio)); higher = stronger signal-on switching upon ATP binding; sequences stand for … in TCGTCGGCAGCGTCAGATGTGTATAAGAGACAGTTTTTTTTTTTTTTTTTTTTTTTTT…TC
Conditions: aptamer strand: ATP DNA aptamer (quencher-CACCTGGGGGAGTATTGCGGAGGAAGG + anchor), 100 nM annealed; ATP concentration: 500 uM
measurement-kind: switch fluorescence ratio
# print the numeric value only

In: What does the record list as switch fluorescence ratio for GATTTATTTA ?
Out: 0.993

In: What does the record list as switch fluorescence ratio for AACTCTGAGA ?
Out: 1.03

In: What does the record list as switch fluorescence ratio for TCTTGGCTTT ?
Out: 0.976

In: What does the record list as switch fluorescence ratio for ATGCATGATT ?
Out: 0.982

In: What does the record list as switch fluorescence ratio for GTTAGGGCGG ?
Out: 0.998

New cases:
In: What does the record list as switch fluorescence ratio for GTGGGGGGGA ?
Out: 1.01

In: What does the record list as switch fluorescence ratio for GGTGGGGTAG ?
Out: 0.988

In: What does the record list as switch fluorescence ratio for AAAACATTCG ?
Out: 1.16

In: What does the record list as switch fluorescence ratio for GATATTAGAT ?
Out: 1.02

In: What does the record list as switch fluorescence ratio for TTTTGCAGGT ?
Out: 1.03

---

Test system: ATP;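 note: ATP exposure 15 min at 22 °C before imaging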
Assay: switch fluorescence ratio, 500 uM ATP over buffer (Cy3 cluster intensity, sum of 5 cycles each) (fold (ratio)); higher = stronger signal-on switching upon ATP binding; sequences stand for … in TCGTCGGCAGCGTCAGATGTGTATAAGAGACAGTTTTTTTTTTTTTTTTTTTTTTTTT…TC
Settings: aptamer strand: ATP DNA aptamer (quencher-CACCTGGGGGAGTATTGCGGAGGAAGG + anchor), 100 nM annealed; ATP concentration: 500 uM
measurement-kind: switch fluorescence ratio

Reference set (3 entries):
In: What does the record list as switch fluorescence ratio for TAAGGGGAGG ?
Out: 1

In: What does the record list as switch fluorescence ratio for TGGTTAAAAT ?
Out: 1

In: What does the record list as switch fluorescence ratio for CAAGTCTGG ?
Out: 0.985

New cases:
In: What does the record list as switch fluorescence ratio for GAGGTAGCGC ?
Out: 0.98

In: What does the record list as switch fluorescence ratio for TAGAACATGG ?
Out: 0.964

In: What does the record list as switch fluorescence ratio for TTGTTGAGAT ?
Out: 1.02

In: What does the record list as switch fluorescence ratio for GTGGAAGTGG ?
Out: 1.02

In: What does the record list as switch fluorescence ratio for TCGCCGAAAT ?
Out: 1.7

In: What does the record list as switch fluorescence ratio for AATGATCGGG ?
Out: 1

In: What does the record list as switch fluorescence ratio for GTAGTAGATG ?
Out: 1.01

In: What does the record list as switch fluorescence ratio for TGTGGGACGT ?
Out: 0.952

---

Tested on: ATP;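 note: ATP exposure 15 min at 22 °C before imaging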
Assay: switch fluorescence ratio, 500 uM ATP over buffer (Cy3 cluster intensity, sum of 5 cycles each) (fold (ratio)); higher = stronger signal-on switching upon ATP binding; sequences stand for … in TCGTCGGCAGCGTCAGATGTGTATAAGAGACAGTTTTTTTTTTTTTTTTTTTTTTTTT…TC
Conditions: aptamer strand: ATP DNA aptamer (quencher-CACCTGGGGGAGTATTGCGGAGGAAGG + anchor), 100 nM annealed; ATP concentration: 500 uM
measurement-kind: switch fluorescence ratio
# print the numeric value only

Reference set (2 entries):
In: What does the record list as switch fluorescence ratio for TTTCGAATAT ?
Out: 0.984

In: What does the record list as switch fluorescence ratio for GTTATTTTCC ?
Out: 1.01

New cases:
In: What does the record list as switch fluorescence ratio for TGTTTTAGAA ?
Out: 1.01

In: What does the record list as switch fluorescence ratio for CGGGGGGATC ?
Out: 1.02

In: What does the record list as switch fluorescence ratio for TGTTGCCTGG ?
Out: 0.978

In: What does the record list as switch fluorescence ratio for CGAGCTTATC ?
Out: 1.2

In: What does the record list as switch fluorescence ratio for GTGAGGGTCG ?
Out: 1.01

In: What does the record list as switch fluorescence ratio for TGGTGGGGCA ?
Out: 0.977

In: What does the record list as switch fluorescence ratio for TAGCGGGTAC ?
Out: 1.28

In: What does the record list as switch fluorescence ratio for GCCTAGGCGG ?
Out: 1.01

In: What does the record list as switch fluorescence ratio for GGAAAGGGAT ?
Out: 0.991

In: What does the record list as switch fluorescence ratio for GGCTTTTTAC ?
Out: 1.06

In: What does the record list as switch fluorescence ratio for ATGTCCCGGT ?
Out: 0.974
